FYI, the data here is from patent US11365193B2.

quantity.kind: melting point

Lookup result for `CCSCON=C1CN(C(=O)Cc2ccc(-c3noc(C(F)(F)F)n3)cc2)C1` ; measured melting point: 73 to 75 °C

Lookup result for `CC(C)ON=C1CCN(C(=O)Cc2ccc(-c3noc(C(F)(F)F)n3)cc2)CC1` ; measured melting point: 96 to 100 °C

Lookup result for `O=c1cccnn1CC1(c2ccc(-c3noc(C(F)(F)F)n3)cc2)OCCO1` ; measured melting point: 105 to 107 °C

Lookup result for `O=c1cc2ccccc2cn1Cc1ccc(-c2noc(C(F)(F)F)n2)cc1` ; measured melting point: 165 to 168 °C

New cases:
Lookup result for `O=C(Cc1ccc(-c2noc(C(F)(F)F)n2)cc1)N1CCC(=NO)CC1` ; measured melting point: 191 to 192 °C

Lookup result for `O=c1c2c(cnn1Cc1ccc(-c3noc(C(F)(F)F)n3)cc1)OCCC2` ; measured melting point: 87 to 89 °C

Lookup result for `O=c1cccnn1CCc1ccc(-c2noc(C(F)(F)F)n2)cc1` ; measured melting point: 74 to 80 °C

Lookup result for `N#CCON=C1CCN(C(=O)Cc2ccc(-c3noc(C(F)(F)F)n3)cc2)CC1` ; measured melting point: 126 to 128 °C

Lookup result for `O=c1c2ccccc2ncn1-c1ccc(-c2noc(C(F)(F)F)n2)cc1` ; measured melting point: 233 to 235 °C

Lookup result for `O=c1c2ccccc2ncn1Cc1ccc(-c2noc(C(F)(F)F)n2)cc1` ; measured melting point: 178 to 180 °C

Lookup result for `O=c1cc(N2CCOCC2)ncn1Cc1ccc(-c2noc(C(F)(F)F)n2)cc1` ; measured melting point: 235 to 237 °C
